Reported values of Estimated Precipitation Range, Calculated Mid-Range for individual entries
- assay_protocol: Turbidimetric aqueous solubility
- Format: physicochemical
- run_parameters: buffered aqueous solution (PBS pH 7.4, 1% DMSO), 37 °C, 2 h
Only the number, expressed in µM, is required.

Worked examples follow.
molecule | unit_info | endpoint_result
CC(C)(C)c1ccc(C(CN)c2ccc(SC(F)(F)F)cc2)cc1.Cl (stereo not shown) [5b] | µM | 11.5
Cl.NCC(c1ccc(OC(F)(F)F)cc1)c1ccc(OC(F)(F)F)cc1 [5h] | µM | 65
CC(C)(C)c1ccc(C(CN)c2ccc(C(C)(C)C)cc2)cc1.Cl [5f] | µM | 3.75

CC(C)(C)c1ccc(C(CN)c2ccc(OC(F)(F)F)cc2)cc1 (stereo not shown) [5a] yielded Estimated Precipitation Range, Calculated Mid-Range of 65

Lab book: Estimated Precipitation Range, Calculated Mid-Range of c1cc2ccc3cccc4ccc(c1)c2c34 [pyrene, reference compound] noted as 6.5
